- tgt: T1, recombinant human 4R0N tau (human, UniProt P10636 2-758)
- T1 construct: also called P10636-6
- assay notes: SPR, Biacore T200, antibody captured on anti-human Fc, tau as analyte, 1:1 fit
endpoint label: pKd
Give only the number. pKd is defined as minus log10 of concentration in molar units.

Record excerpt, results attached:
INSERT INTO assay_data (binder, observed_result) VALUES
  ('h3D6VHvb8/L2-DIM6 (antibody, V domains shown, Humanized antibody with human Fc) VH: EVQLVQSGAEVVKPGATVKISCKASGFNIKDYYLHWVRQRPGQGLEWIGWIDPENGDTVYEPKFQGRATITADTSTDTAYLQLGSLTSEDTAVYFCSTLDFWGQGTLVTVSS VL: DVVMTQSPLSLPVTLGQPASISCKSSQSLLDSDGKTYLNWLQQRPGQSPRRLIYLVGKDDSGVPDRFSGSGSGTDFTLKISRVEAEDVGVYYCWQGTHFPYTFGGGTKLEIK', 8.82),
  ('hu3D6VHv1bA11/L2-DIM18 (antibody, V domains shown, Humanized antibody with human Fc) VH: EVQLVQSGAEVVKPGATVKISCKASGFNIKDYYLHWVRQRPGQGLEWIGWIDPENGDTVYDPKFQGRATITADTSTDTAYLQLGSLTSEDTAVYFCSTLDFWGQGTLVTVSS VL: DVVMTQSPLSLPVTLGQPASISCKSSQSLLDSDGKTYLNWLQQRPGQSPRRLIYDVSKRDSGVPDRFSGSGSGTDFTLKISRVEAEDVGVYYCWQGTHFPYTFGGGTKLEIK', 8.60);

Could you now consider this next binder?
## Input State the recorded pKd for this entry: hu3D6VHv1bA11/L2-DIM21 (antibody, V domains shown, Humanized antibody with human Fc; also called hu3D6VHv1bA11 / hu3D6VLv2 L54D) VH: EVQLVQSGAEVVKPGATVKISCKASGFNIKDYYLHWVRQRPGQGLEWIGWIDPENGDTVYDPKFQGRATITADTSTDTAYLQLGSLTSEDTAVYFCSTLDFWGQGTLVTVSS VL: DVVMTQSPLSLPVTLGQPASISCKSSQSLLDSDGKTYLNWLLQRPGQSPRRLIYLVSKDDSGVPDRFSGSGSGTDFTLKISRVEAEDVGVYYCWQGTHFPYTFGGGTKLEIK
## Output 9.16
